Origin of values: patent US8709764B2

measurement.notes: Incubation of X or IX with human fecal cultures A-D for 8 days, conversion products detected by HPLC
Type: in vitro ADME
settings: human, human fecal culture D (10% v/v); fecal Sample D, 25 mg/l substrate, 8 days anaerobic; average (stdev) molar percentage relative to dosed flavonoid
reported.property: recovery at 8 days, 25 mg/l (%)

compound.structure: COc1cc(O)c(CC=C(C)C)c(O)c1C(=O)/C=C/c1ccc(O)cc1
reported.property: recovery at 8 days, 25 mg/l
unit.of.measurement: %
observed.measurement: 65.4

* * *

measurement.notes: Incubation of X or IX with human fecal cultures A-D for 8 days, conversion products detected by HPLC
Format: in vitro ADME
settings: human, human fecal culture B (10% v/v); fecal Sample B, 25 mg/l substrate, 8 days anaerobic; average (stdev) molar percentage relative to dosed flavonoid
reported.property: recovery at 8 days, 25 mg/l (%)

molecule: COc1cc(O)c(CC=C(C)C)c(O)c1C(=O)/C=C/c1ccc(O)cc1 [X]
unit.of.measurement: %
observed.measurement: 80.5
